These measurements were taken from patent US20250250357A1.

target: T1, human MSLN-FL-his protein (human, UniProt Q13421 296-580); assay: competitive ELISA; row F8-7.5; note: test concentration or dose not given here
T1 construct: made in HEK293E cells, purified on nickel column; also called hMSLN-FL-his; human MSLN full-length protein; not shown: His tag
T1 sequence (Q13421 other isoform, or with tags, fused parts or gaps): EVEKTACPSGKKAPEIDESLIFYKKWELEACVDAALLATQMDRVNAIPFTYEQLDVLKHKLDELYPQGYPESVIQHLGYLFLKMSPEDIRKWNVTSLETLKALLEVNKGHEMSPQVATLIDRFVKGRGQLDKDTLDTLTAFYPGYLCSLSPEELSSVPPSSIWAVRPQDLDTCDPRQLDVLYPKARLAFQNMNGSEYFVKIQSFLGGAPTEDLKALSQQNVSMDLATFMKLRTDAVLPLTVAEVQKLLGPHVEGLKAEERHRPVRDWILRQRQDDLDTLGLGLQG
PROPERTY: competition rate (%)
Give bare numbers, in %.

Example entries begin here.
S009-F8-15.19 (antibody, human IgG1, kappa, V domains shown, human-murine chimeric antibody, human IgG1/kappa constant regions) VH: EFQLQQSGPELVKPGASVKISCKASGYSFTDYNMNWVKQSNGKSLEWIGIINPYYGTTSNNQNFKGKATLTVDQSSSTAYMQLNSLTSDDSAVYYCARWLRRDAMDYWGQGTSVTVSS VL: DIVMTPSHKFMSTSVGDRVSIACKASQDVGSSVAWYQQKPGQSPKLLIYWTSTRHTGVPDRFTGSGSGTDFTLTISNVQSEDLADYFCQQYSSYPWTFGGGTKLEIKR : -117
S009-F8-7.5 (antibody, human IgG1, kappa, V domains shown, human-murine chimeric antibody, human IgG1/kappa constant regions) VH: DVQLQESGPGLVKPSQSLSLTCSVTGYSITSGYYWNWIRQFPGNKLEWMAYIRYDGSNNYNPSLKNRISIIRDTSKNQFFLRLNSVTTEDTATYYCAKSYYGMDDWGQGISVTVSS VL: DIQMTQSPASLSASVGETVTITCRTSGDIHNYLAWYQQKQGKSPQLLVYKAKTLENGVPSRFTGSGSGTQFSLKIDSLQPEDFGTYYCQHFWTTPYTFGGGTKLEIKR : 85.8
S009-F8-5.15 (antibody, human IgG1, kappa, V domains shown, human-murine chimeric antibody, human IgG1/kappa constant regions) VH: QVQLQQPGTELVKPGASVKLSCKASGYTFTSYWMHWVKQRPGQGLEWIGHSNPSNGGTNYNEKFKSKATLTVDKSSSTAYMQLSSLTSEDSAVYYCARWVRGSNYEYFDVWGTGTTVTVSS VL: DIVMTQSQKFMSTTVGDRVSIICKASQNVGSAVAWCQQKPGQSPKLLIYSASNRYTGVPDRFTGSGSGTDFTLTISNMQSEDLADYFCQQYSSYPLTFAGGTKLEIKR : -148
S009-F8-19.21 (antibody, human IgG1, kappa, V domains shown, human-murine chimeric antibody, human IgG1/kappa constant regions) VH: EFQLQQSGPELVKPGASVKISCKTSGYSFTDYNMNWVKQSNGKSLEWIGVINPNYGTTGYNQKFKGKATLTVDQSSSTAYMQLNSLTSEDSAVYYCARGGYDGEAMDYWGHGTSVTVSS VL: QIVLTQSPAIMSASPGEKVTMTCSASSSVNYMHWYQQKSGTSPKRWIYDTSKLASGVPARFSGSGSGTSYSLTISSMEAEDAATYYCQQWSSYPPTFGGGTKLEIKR : -137
S009-F8-31.22 (antibody, human IgG1, kappa, V domains shown, human-murine chimeric antibody, human IgG1/kappa constant regions) VH: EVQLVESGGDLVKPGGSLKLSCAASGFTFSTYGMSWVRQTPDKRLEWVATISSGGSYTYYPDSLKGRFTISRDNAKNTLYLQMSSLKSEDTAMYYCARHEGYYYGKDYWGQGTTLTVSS VL: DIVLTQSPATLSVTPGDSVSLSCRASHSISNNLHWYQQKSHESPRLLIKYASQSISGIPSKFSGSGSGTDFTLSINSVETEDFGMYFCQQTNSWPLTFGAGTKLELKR : 18.1
S009-F8-12.13 (antibody, human IgG1, kappa, V domains shown, human-murine chimeric antibody, human IgG1/kappa constant regions) VH: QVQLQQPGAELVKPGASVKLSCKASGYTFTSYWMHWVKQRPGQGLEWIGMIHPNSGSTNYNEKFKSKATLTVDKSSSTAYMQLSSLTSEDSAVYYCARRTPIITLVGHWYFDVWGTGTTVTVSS VL: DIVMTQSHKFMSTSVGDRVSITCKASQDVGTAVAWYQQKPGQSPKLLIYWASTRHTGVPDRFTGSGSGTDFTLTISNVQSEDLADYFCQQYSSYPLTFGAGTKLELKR : -135

Query :: Answer with the recorded competition rate of S009-F8-27.1 (antibody, human IgG1, kappa, V domains shown, human-murine chimeric antibody, human IgG1/kappa constant regions) VH: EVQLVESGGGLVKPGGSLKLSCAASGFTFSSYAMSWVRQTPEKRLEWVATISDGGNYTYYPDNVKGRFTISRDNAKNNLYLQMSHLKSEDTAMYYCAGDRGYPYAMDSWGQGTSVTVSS VL: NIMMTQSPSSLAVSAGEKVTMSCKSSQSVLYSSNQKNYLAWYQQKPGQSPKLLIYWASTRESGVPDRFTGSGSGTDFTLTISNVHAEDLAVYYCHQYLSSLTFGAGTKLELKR only.
Result :: -9.43
